Here is a set of molecules with reported IC50 for UniProt P08581, compiled from the literature.
Threshold 50 nM: IC50 strictly smaller gives true (1), otherwise false (0).

Here's what some known entries look like.
{"molecule": "C1=CN(c2ccccc2)CC(CNc2ccc(Oc3ccncc3)cc2)=C1", "label_class": "true (1)"}
{"molecule": "COc1cc2nccc(Nc3ccc(NC(=S)NC(=O)Cc4ccccc4)cc3F)c2cc1OC", "label_class": "false (0)"}
{"molecule": "Cn1cc(-c2ccc(=O)n(CCOc3ccnc4cc(NC5CCN(C(=O)c6cc(Cc7n[nH]c(=O)c8ccccc78)ccc6F)C5)ccc34)n2)cn1 (stereo not given)", "label_class": "true (1)"}

Determine if Cc1cc(Oc2ccc(NC(=O)c3sc(-c4ccccn4)nc3C)cc2)c2nncn2n1 shows IC50 strictly lower than 50 nM.
false (0)

Given CC(=O)N[C@H]1CC[C@H](c2ncc(Cl)c(Nc3ccccc3S(=O)(=O)C(C)C)n2)CC1 , is recorded IC50 strictly lower than 50 nM?
false (0)

Hi there! Is IC50 for C[C@@H](c1ccc2nccn2c1)n1nnc2ncc(-c3cnn(C)c3)nc21 below 50 nM, do you know?
true (1)

Does this molecule meet the criterion IC50 < 50 nM? CC1CN(c2ccc3c(OCCn4nc(-c5cnn(C)c5)ccc4=O)ccnc3c2)CCN1C(=O)c1cc(Cc2n[nH]c(=O)c3ccccc23)ccc1F (racemic)
true (1)

Problem: For the molecule COc1cc2c(Oc3ccc(NC(=O)C4=NN(c5ccccc5F)C(=O)C4C)cc3F)ccnc2cc1OCCCN1CCC(C)CC1 (stereo not given) , is IC50 under 50 nM?
true (1)

# check: IC50 < 50 nM for Cn1cc(-c2ccc(=O)n(CCOc3ccnc4cc(N5CCN(C(=O)c6cc(Cc7n[nH]c(=O)c8ccccc78)ccc6F)CC5)ccc34)n2)cn1
true (1)
